Entries and their fold-change of IC50 of the mutant relative to WT values follow.
Tested on: HIV-1 RT mutant G190A
PROTOCOL DESCRIPTION: single round infection assay, G190A
Type: cell-based
TEST PARAMETERS: G190A vs WT

Given the entry Cc1cc(/C=C/C#N)cc(C)c1Nc1ccnc(Nc2ccc(C#N)cc2)n1 , report its measured fold-change of IC50 of the mutant relative to WT. < 2

Form field: reported fold-change of IC50 of the mutant relative to WT of Cc1cc(/C=C/C#N)cc(C)c1Nc1nc(Nc2ccc(C#N)cc2)c2nc[nH]c2n1 < 2

What does the data say about its fold-change of IC50 of the mutant relative to WT? Entry: COc1ccc(Nc2nc(Nc3c(C)cc(/C=C/C#N)cc3C)nc3[nH]cnc23)cc1 2

Item COc1ccc(Cn2cnc3c(Nc4ccc(C#N)cc4)nc(Nc4c(C)cc(/C=C/C#N)cc4C)nc32)cc1 has what recorded fold-change of IC50 of the mutant relative to WT? < 2
